Target: KCC4 (Homo sapiens, UniProt Q9Y666)
Sequence (Q9Y666 1-1083): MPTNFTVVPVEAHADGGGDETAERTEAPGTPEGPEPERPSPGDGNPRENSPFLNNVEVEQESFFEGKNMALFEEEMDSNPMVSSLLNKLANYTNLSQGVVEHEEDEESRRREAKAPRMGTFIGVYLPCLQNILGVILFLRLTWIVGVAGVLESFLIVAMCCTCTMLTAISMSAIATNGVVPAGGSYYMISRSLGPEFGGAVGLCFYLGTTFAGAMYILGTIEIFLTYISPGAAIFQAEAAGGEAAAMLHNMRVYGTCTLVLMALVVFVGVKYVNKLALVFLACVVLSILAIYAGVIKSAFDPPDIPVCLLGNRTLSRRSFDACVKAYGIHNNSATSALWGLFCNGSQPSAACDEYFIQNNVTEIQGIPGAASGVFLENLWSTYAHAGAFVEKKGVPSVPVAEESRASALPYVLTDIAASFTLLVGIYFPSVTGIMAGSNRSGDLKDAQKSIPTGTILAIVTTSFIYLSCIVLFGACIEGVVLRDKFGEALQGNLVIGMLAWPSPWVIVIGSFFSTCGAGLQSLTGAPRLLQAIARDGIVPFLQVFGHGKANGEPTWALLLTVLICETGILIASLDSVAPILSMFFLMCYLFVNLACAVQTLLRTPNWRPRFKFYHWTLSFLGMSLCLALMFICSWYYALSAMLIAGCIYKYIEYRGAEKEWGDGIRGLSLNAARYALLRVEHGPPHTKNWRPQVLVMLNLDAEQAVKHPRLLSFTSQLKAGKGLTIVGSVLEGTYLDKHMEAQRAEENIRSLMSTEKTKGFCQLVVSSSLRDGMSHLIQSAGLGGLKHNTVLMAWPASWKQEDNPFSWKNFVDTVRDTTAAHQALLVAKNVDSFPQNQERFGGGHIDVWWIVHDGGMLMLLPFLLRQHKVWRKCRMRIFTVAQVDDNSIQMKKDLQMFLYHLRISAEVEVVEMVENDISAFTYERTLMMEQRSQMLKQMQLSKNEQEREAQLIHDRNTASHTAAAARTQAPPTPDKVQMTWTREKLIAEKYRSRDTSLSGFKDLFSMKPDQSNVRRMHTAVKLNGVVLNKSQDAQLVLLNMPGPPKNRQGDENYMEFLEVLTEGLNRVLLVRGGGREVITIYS
Test: Tl+ flux assay, HEK-293 cells expressing KCC4
Settings: read-out: concentration at which effects on KCC4 were seen
pEC50: −log10 of the molar value.
quantity: pEC50

smiles-text | experimental-value
C[C@@H]1CN(c2nc3c(c(Nc4ccc(C5CCCCC5)cc4)n2)COC3)CCO1 | < 4.00

Reference source: patent US20260048062A1
